TARGET OR TEST SYSTEM: MsbA-MIANS (Escherichia coli)
ASSAY REMARKS: Dual sequential titration of MsbA-MIANS fluorescence quenching
Format: binding
ASSAY CONDITIONS: 10 °C; titrated after lipid A

[
  {
    "MOLECULE": "Nc1ncnc2c1ncn2[C@@H]1O[C@H](COP(=O)(O)OP(=O)(O)OP(=O)(O)O)[C@@H](O)[C@H]1O",
    "TARGET OR TEST SYSTEM": "MsbA-MIANS (Escherichia coli)",
    "Kd [µM]": 2030
  }
]

###

TARGET OR TEST SYSTEM: MsbA (Escherichia coli, UniProt P60752)
Sequence (P60752 whole entry): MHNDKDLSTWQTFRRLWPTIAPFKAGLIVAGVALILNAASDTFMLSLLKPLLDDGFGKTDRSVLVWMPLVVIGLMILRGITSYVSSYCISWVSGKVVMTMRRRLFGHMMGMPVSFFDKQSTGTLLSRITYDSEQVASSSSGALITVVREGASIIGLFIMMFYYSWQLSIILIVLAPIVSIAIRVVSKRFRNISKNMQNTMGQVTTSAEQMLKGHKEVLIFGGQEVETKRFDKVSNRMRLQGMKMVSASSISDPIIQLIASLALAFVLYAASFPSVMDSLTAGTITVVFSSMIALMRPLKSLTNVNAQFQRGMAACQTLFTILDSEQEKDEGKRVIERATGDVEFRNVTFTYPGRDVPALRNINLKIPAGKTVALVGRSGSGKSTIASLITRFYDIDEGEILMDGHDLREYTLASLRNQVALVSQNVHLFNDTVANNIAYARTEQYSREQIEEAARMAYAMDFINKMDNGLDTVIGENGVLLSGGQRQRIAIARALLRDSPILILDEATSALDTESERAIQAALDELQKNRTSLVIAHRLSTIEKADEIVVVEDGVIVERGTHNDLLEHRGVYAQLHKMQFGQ
ASSAY REMARKS: Modulation of the rate of MsbA labelling by MIANS
Type: biochemical
Label yes (1) when Labelling efficiency is strictly below 90%; otherwise label no (0).

[
  {
    "MOLECULE": "CC(C)[C@@H]1NC(=O)[C@H](C)OC(=O)[C@@H](C(C)C)NC(=O)[C@@H](C(C)C)OC(=O)[C@H](C(C)C)NC(=O)[C@H](C)OC(=O)[C@@H](C(C)C)NC(=O)[C@@H](C(C)C)OC(=O)[C@H](C(C)C)NC(=O)[C@H](C)OC(=O)[C@@H](C(C)C)NC(=O)[C@@H](C(C)C)OC1=O",
    "LABEL": "no (0)"
  },
  {
    "MOLECULE": "CC[C@]1(O)C[C@@H]2CN(CCc3c([nH]c4ccccc34)[C@@](C(=O)OC)(c3cc4c(cc3OC)N(C)[C@H]3[C@@](O)(C(=O)OC)[C@H](OC(C)=O)[C@]5(CC)C=CCN6CC[C@]43[C@@H]65)C2)C1",
    "LABEL": "no (0)"
  },
  {
    "MOLECULE": "COc1ccc(CCN(C)CCCC(C#N)(c2ccc(OC)c(OC)c2)C(C)C)cc1OC (centres unmarked)",
    "LABEL": "yes (1)"
  },
  {
    "MOLECULE": "O=c1c(O)c(-c2ccc(O)c(O)c2)oc2cc(O)cc(O)c12",
    "LABEL": "yes (1)"
  },
  {
    "MOLECULE": "COc1cccc2c1C(=O)c1c(O)c3c(c(O)c1C2=O)C[C@@](O)(C(C)=O)C[C@@H]3O[C@H]1C[C@H](N)[C@H](O)[C@H](C)O1",
    "LABEL": "yes (1)"
  }
]

###

TARGET OR TEST SYSTEM: MsbA-MIANS (Escherichia coli, UniProt P60752)
Sequence (P60752 whole entry): as above
ASSAY REMARKS: Dual sequential titration of MsbA-MIANS fluorescence quenching
Assay type: binding
ASSAY CONDITIONS: Kd, 10 °C; titrated after ATP

[
  {
    "COMPOUND": "COc1cccc2c1C(=O)c1c(O)c3c(c(O)c1C2=O)C[C@@](O)(C(C)=O)C[C@@H]3O[C@H]1C[C@H](N)[C@H](O)[C@H](C)O1 [Daunorubicin]",
    "TARGET OR TEST SYSTEM": "MsbA-MIANS (Escherichia coli, UniProt P60752)",
    "MEASUREMENT UNIT": "µM",
    "Kd": 9.59
  }
]

###

Reported pKd values follow for various compounds
TARGET OR TEST SYSTEM: MsbA-MIANS (Escherichia coli, UniProt P60752)
ASSAY REMARKS: MIANS fluorescence quenching titration of MsbA-MIANS
Type: binding
ASSAY CONDITIONS: Kd, 23 °C; MsbA 100 μg/ml in 0.05% DM; single-site fit
pKd: −log10 of the molar value.

[
  {
    "COMPOUND": "Nc1ncnc2c1ncn2[C@@H]1O[C@H](CO[P@](=O)(O)O[P@](=O)(O)O[P@@](=O)(O)S)[C@@H](O)[C@H]1O [ATP[S], adenosine 5´-[γ-thio]triphosphate]",
    "pKd": 5.74
  },
  {
    "COMPOUND": "COc1cccc2c1C(=O)c1c(O)c3c(c(O)c1C2=O)C[C@@](O)(C(C)=O)C[C@@H]3O[C@H]1C[C@H](N)[C@H](O)[C@H](C)O1 [Daunorubicin]",
    "pKd": 5.34
  },
  {
    "COMPOUND": "O=c1c(O)c(-c2ccc(O)c(O)c2)oc2cc(O)cc(O)c12 [Quercetin]",
    "pKd": 5.07
  },
  {
    "COMPOUND": "COc1ccc(CCN(C)CCCC(C#N)(c2ccc(OC)c(OC)c2)C(C)C)cc1OC (centres unmarked) [Verapamil]",
    "pKd": 5.90
  },
  {
    "COMPOUND": "CC[C@]1(O)C[C@@H]2CN(CCc3c([nH]c4ccccc34)[C@@](C(=O)OC)(c3cc4c(cc3OC)N(C)[C@H]3[C@@](O)(C(=O)OC)[C@H](OC(C)=O)[C@]5(CC)C=CCN6CC[C@]43[C@@H]65)C2)C1 [Vinblastine]",
    "pKd": 5.92
  }
]

###

TARGET OR TEST SYSTEM: MsbA-MIANS (Escherichia coli)
ASSAY REMARKS: Dual sequential titration of MsbA-MIANS fluorescence quenching
Assay type: binding
ASSAY CONDITIONS: Kd, 10 °C; titrated after lipid A
pKd: −log10 of the molar value.

[
  {
    "COMPOUND": "COc1cccc2c1C(=O)c1c(O)c3c(c(O)c1C2=O)C[C@@](O)(C(C)=O)C[C@@H]3O[C@H]1C[C@H](N)[C@H](O)[C@H](C)O1 [Daunorubicin]",
    "pKd": 5.30
  }
]

###

TARGET OR TEST SYSTEM: MsbA-MIANS (Escherichia coli, UniProt P60752)
ASSAY REMARKS: Dual sequential titration of MsbA-MIANS fluorescence quenching
Assay type: binding
ASSAY CONDITIONS: 23 °C; titrated after lipid A
MEASURE NAME: Kd (µM)

[
  {
    "MOLECULE": "Nc1ncnc2c1ncn2[C@@H]1O[C@H](COP(=O)(O)OP(=O)(O)NP(=O)(O)O)[C@@H](O)[C@H]1O [p[NH]ppA, adenosine 5′-[β,γ-imido]triphosphate]",
    "MEASURE NAME": "Kd",
    "MEASUREMENT UNIT": "µM",
    "OBSERVED RESULT": 650
  }
]

###

TARGET OR TEST SYSTEM: MsbA-MIANS (Escherichia coli, UniProt P60752)
ASSAY REMARKS: MIANS fluorescence quenching titration of MsbA-MIANS
Format: binding
ASSAY CONDITIONS: 10 °C; MsbA 100 μg/ml in 0.05% DM; ligand alone
pKd: −log10 of the molar value.
MEASURE NAME: pKd

[
  {
    "MOLECULE": "Nc1ncnc2c1ncn2[C@@H]1O[C@H](COP(=O)(O)OP(=O)(O)OP(=O)(O)O)[C@@H](O)[C@H]1O",
    "OBSERVED RESULT": 2.52
  }
]

###

TARGET OR TEST SYSTEM: MsbA-MIANS (Escherichia coli, UniProt P60752)
ASSAY REMARKS: MIANS fluorescence quenching titration of MsbA-MIANS
Format: binding
ASSAY CONDITIONS: Kd, 23 °C; MsbA reconstituted into egg PC proteoliposomes
pKd: −log10 of the molar value.

[
  {
    "COMPOUND": "COc1cccc2c1C(=O)c1c(O)c3c(c(O)c1C2=O)C[C@@](O)(C(C)=O)C[C@@H]3O[C@H]1C[C@H](N)[C@H](O)[C@H](C)O1 [Daunorubicin]",
    "TARGET OR TEST SYSTEM": "MsbA-MIANS (Escherichia coli, UniProt P60752)",
    "pKd": 5.37
  }
]

###

TARGET OR TEST SYSTEM: UniProt P60752
ASSAY REMARKS: Modulation of the rate of MsbA labelling by MIANS
Format: biochemical
Respond with Condition met for Initial rate of labelling values of 70 ms^−1 and above, Condition not met for values below.

[
  {
    "MOLECULE": "COc1cccc2c1C(=O)c1c(O)c3c(c(O)c1C2=O)C[C@@](O)(C(C)=O)C[C@@H]3O[C@H]1C[C@H](N)[C@H](O)[C@H](C)O1",
    "LABEL": "Condition not met"
  },
  {
    "MOLECULE": "CC[C@]1(O)C[C@@H]2CN(CCc3c([nH]c4ccccc34)[C@@](C(=O)OC)(c3cc4c(cc3OC)N(C)[C@H]3[C@@](O)(C(=O)OC)[C@H](OC(C)=O)[C@]5(CC)C=CCN6CC[C@]43[C@@H]65)C2)C1",
    "LABEL": "Condition met"
  },
  {
    "MOLECULE": "O=c1c(O)c(-c2ccc(O)c(O)c2)oc2cc(O)cc(O)c12",
    "LABEL": "Condition met"
  },
  {
    "MOLECULE": "CC(C)[C@@H]1NC(=O)[C@H](C)OC(=O)[C@@H](C(C)C)NC(=O)[C@@H](C(C)C)OC(=O)[C@H](C(C)C)NC(=O)[C@H](C)OC(=O)[C@@H](C(C)C)NC(=O)[C@@H](C(C)C)OC(=O)[C@H](C(C)C)NC(=O)[C@H](C)OC(=O)[C@@H](C(C)C)NC(=O)[C@@H](C(C)C)OC1=O",
    "LABEL": "Condition not met"
  }
]
